# Tested on: 327498-153-R-J2-PDC multicell spheroid viability
# testSummary: Anticancer human tumor 327498-153-R-J2-PDC patient-derived uterine carcinosarcoma cell line growth inhibition [IpAb]
# testContext: second compound 1 µM; first compound 0.316 µM; stronger effect = lower value
# note: exactly 30% is not below, so it is no; use yes for viability, T/C strictly under it

// below: answered compounds
CCCS(=O)(=O)Nc1ccc(F)c(C(=O)c2c[nH]c3ncc(-c4ccc(Cl)cc4)cc23)c1F + CC(C)NCC(C(=O)N1CCN(c2ncnc3c2C(C)CC3O)CC1)c1ccc(Cl)cc1: no
Cc1nc(NC(=O)N2CCCC2C(N)=O)sc1-c1ccnc(C(C)(C)C(F)(F)F)c1 (stereo not given) + CCN1CCN(Cc2ccc(Nc3ncc(F)c(-c4cc(F)c5nc(C)n(C(C)C)c5c4)n3)nc2)CC1: no

In: Hello, is viability, T/C of the following compound strictly smaller than 30%? C=CCn1c(=O)c2cnc(Nc3ccc(N4CCN(C)CC4)cc3)nc2n1-c1cccc(C(C)(C)O)n1 + CC(C)NCC(C(=O)N1CCN(c2ncnc3c2C(C)CC3O)CC1)c1ccc(Cl)cc1
Out: yes

In: Then what about the compound CC1(C)CCC(CN2CCN(c3ccc(C(=O)NS(=O)(=O)c4ccc(NCC5CCOCC5)c([N+](=O)[O-])c4)c(Oc4cnc5[nH]ccc5c4)c3)CC2)=C(c2ccc(Cl)cc2)C1 + CCN1CCN(Cc2ccc(Nc3ncc(F)c(-c4cc(F)c5nc(C)n(C(C)C)c5c4)n3)nc2)CC1 ?
Out: no

In: Then what about the compound Cn1ncc(Cl)c1-c1cc(C(=O)NC(CN)Cc2cccc(F)c2)sc1Cl (stereo not given) + CCN1CCN(Cc2ccc(Nc3ncc(F)c(-c4cc(F)c5nc(C)n(C(C)C)c5c4)n3)nc2)CC1 ?
Out: no

---

Below: a set of entries, each annotated with reported viability, T/C.
# Tested on: 327498-153-R-J2-PDC multicell spheroid viability
# testSummary: Anticancer human tumor 327498-153-R-J2-PDC cell line growth inhibition [IpAb];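 further: spheroids exposed to agents for 7 days; 100% = DMSO vehicle control viability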
# testContext: second compound 1 µM; first compound 0.0949 µM; stronger effect = lower value
Field format: number, assumed %, no unit text.

Completed entries (count: 4):
CC(=O)c1c(C)c2cnc(Nc3ccc(N4CCNCC4)cn3)nc2n(C2CCCC2)c1=O + CCN1CCN(Cc2ccc(Nc3ncc(F)c(-c4cc(F)c5nc(C)n(C(C)C)c5c4)n3)nc2)CC1: 57.6
Cn1cnc2c(F)c(Nc3ccc(Br)cc3Cl)c(C(=O)NOCCO)cc21 + CCN1CCN(Cc2ccc(Nc3ncc(F)c(-c4cc(F)c5nc(C)n(C(C)C)c5c4)n3)nc2)CC1: 36.5
CC(C)(C)c1cnc(CSc2cnc(NC(=O)C3CCNCC3)s2)o1 + CCN1CCN(Cc2ccc(Nc3ncc(F)c(-c4cc(F)c5nc(C)n(C(C)C)c5c4)n3)nc2)CC1: 29.8
CC(=O)c1c(C)c2cnc(Nc3ccc(N4CCNCC4)cn3)nc2n(C2CCCC2)c1=O + CC(C)NCC(C(=O)N1CCN(c2ncnc3c2C(C)CC3O)CC1)c1ccc(Cl)cc1: 34.5

In: Please give the measured viability, T/C for this compound: CC(C)(C)c1cnc(CSc2cnc(NC(=O)C3CCNCC3)s2)o1 + CC(C)NCC(C(=O)N1CCN(c2ncnc3c2C(C)CC3O)CC1)c1ccc(Cl)cc1
Out: 37.6

In: Then what about the compound Cn1cnc2c(F)c(Nc3ccc(Br)cc3Cl)c(C(=O)NOCCO)cc21 + CC(C)NCC(C(=O)N1CCN(c2ncnc3c2C(C)CC3O)CC1)c1ccc(Cl)cc1 ?
Out: 32.9

---

# Test system: 327498-153-R-J2-PDC multicell spheroid viability
# testSummary: Anticancer human tumor 327498-153-R-J2-PDC cell line growth inhibition [IpAb];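 further: spheroids exposed to agents for 7 days; 100% = DMSO vehicle control viability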
# testContext: second compound 0.1 µM; first compound 10 µM; stronger effect = lower value
reportedEndpoint: viability, T/C (%)
Field format: number, assumed %, no unit text.

CCCS(=O)(=O)Nc1ccc(F)c(C(=O)c2c[nH]c3ncc(-c4ccc(Cl)cc4)cc23)c1F + CCN1CCN(Cc2ccc(Nc3ncc(F)c(-c4cc(F)c5nc(C)n(C(C)C)c5c4)n3)nc2)CC1: 70.8
Cn1nccc1Nc1nccc(-c2ccn(C(CO)c3ccc(Cl)c(F)c3)c(=O)c2)n1 (stereo not drawn) + CCN1CCN(Cc2ccc(Nc3ncc(F)c(-c4cc(F)c5nc(C)n(C(C)C)c5c4)n3)nc2)CC1: 26.4

Kindly consider the entry below.
In: Please give the measured viability, T/C for this compound: C=CCn1c(=O)c2cnc(Nc3ccc(N4CCN(C)CC4)cc3)nc2n1-c1cccc(C(C)(C)O)n1 + CC(C)NCC(C(=O)N1CCN(c2ncnc3c2C(C)CC3O)CC1)c1ccc(Cl)cc1
Out: 6.69

---

# System: 327498-153-R-J2-PDC multicell spheroid viability
# testSummary: Anticancer human tumor 327498-153-R-J2-PDC cell line growth inhibition [IpAb];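 further: spheroids exposed to agents for 7 days; 100% = DMSO vehicle control viability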
# testContext: second compound 3.16 µM; first compound 0.0316 µM; stronger effect = lower value
# Method: Combinatorial screen of targeted agents with ipatasertib and abemaciclib in multi-cell type tumor spheroids […] Compounds. […] If the clinical Cmax for an agent had not been determined, the highest concentration tested was 10 microM. NCI60 Cell Culture. […] The optimal seeding densities for each of the cell lines at each time point assessed were determined prior to performing the concentration response studies. […]
reportedEndpoint: viability, T/C

Completed entries (count: 5):
C=CC(=O)N1CCN(c2nc(=O)n(-c3c(C)ccnc3C(C)C)c3nc(-c4c(O)cccc4F)c(F)cc23)C(C)C1 (stereo not given) + CC(C)NCC(C(=O)N1CCN(c2ncnc3c2C(C)CC3O)CC1)c1ccc(Cl)cc1: 28.9%
CC(C)n1nc(-c2ccc3oc(N)nc3c2)c2c(N)ncnc21 + CC(C)NCC(C(=O)N1CCN(c2ncnc3c2C(C)CC3O)CC1)c1ccc(Cl)cc1: 8.42%
Cc1nc(NC(=O)N2CCCC2C(N)=O)sc1-c1ccnc(C(C)(C)C(F)(F)F)c1 (stereo not given) + CC(C)NCC(C(=O)N1CCN(c2ncnc3c2C(C)CC3O)CC1)c1ccc(Cl)cc1: 54.3%
CCCS(=O)(=O)Nc1ccc(F)c(C(=O)c2c[nH]c3ncc(-c4ccc(Cl)cc4)cc23)c1F + CC(C)NCC(C(=O)N1CCN(c2ncnc3c2C(C)CC3O)CC1)c1ccc(Cl)cc1: 49.6%
COc1c(OCCCN2CCOCC2)ccc2c3n(c(=NC(=O)c4cnc(N)nc4)nc12)CCN3 + CC(C)NCC(C(=O)N1CCN(c2ncnc3c2C(C)CC3O)CC1)c1ccc(Cl)cc1: 23.6%

In: Please give the measured viability, T/C for this molecule: CC1(C)CCC(CN2CCN(c3ccc(C(=O)NS(=O)(=O)c4ccc(NCC5CCOCC5)c([N+](=O)[O-])c4)c(Oc4cnc5[nH]ccc5c4)c3)CC2)=C(c2ccc(Cl)cc2)C1 + CC(C)NCC(C(=O)N1CCN(c2ncnc3c2C(C)CC3O)CC1)c1ccc(Cl)cc1
Out: 43.8%

In: Then what about the molecule C=CCn1c(=O)c2cnc(Nc3ccc(N4CCN(C)CC4)cc3)nc2n1-c1cccc(C(C)(C)O)n1 + CC(C)NCC(C(=O)N1CCN(c2ncnc3c2C(C)CC3O)CC1)c1ccc(Cl)cc1 ?
Out: 45.1%

In: Then what about the molecule Cn1nccc1Nc1nccc(-c2ccn(C(CO)c3ccc(Cl)c(F)c3)c(=O)c2)n1 (stereo not given) + CC(C)NCC(C(=O)N1CCN(c2ncnc3c2C(C)CC3O)CC1)c1ccc(Cl)cc1 ?
Out: 33.9%

In: Then what about the molecule Cn1ncc(Cl)c1-c1cc(C(=O)NC(CN)Cc2cccc(F)c2)sc1Cl (stereo not given) + CC(C)NCC(C(=O)N1CCN(c2ncnc3c2C(C)CC3O)CC1)c1ccc(Cl)cc1 ?
Out: 50.5%

In: Then what about the molecule Cn1ncnc1[C@H]1c2n[nH]c(=O)c3cc(F)cc(c23)N[C@@H]1c1ccc(F)cc1 + CC(C)NCC(C(=O)N1CCN(c2ncnc3c2C(C)CC3O)CC1)c1ccc(Cl)cc1 ?
Out: 21.1%

---

# System: 327498-153-R-J2-PDC multicell spheroid viability
# testSummary: Anticancer human tumor 327498-153-R-J2-PDC cell line growth inhibition [IpAb];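 further: spheroids exposed to agents for 7 days; 100% = DMSO vehicle control viability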
# testContext: second compound 0.316 µM; first compound 0.00316 µM; stronger effect = lower value
Below: a set of entries, each annotated with reported viability, T/C.
Field format: number, assumed %, no unit text.

Completed entries (count: 5):
COc1c(OCCCN2CCOCC2)ccc2c3n(c(=NC(=O)c4cnc(N)nc4)nc12)CCN3 + CCN1CCN(Cc2ccc(Nc3ncc(F)c(-c4cc(F)c5nc(C)n(C(C)C)c5c4)n3)nc2)CC1: 51.6
CC(C)n1nc(-c2ccc3oc(N)nc3c2)c2c(N)ncnc21 + CCN1CCN(Cc2ccc(Nc3ncc(F)c(-c4cc(F)c5nc(C)n(C(C)C)c5c4)n3)nc2)CC1: 39.5
Cn1ncnc1[C@H]1c2n[nH]c(=O)c3cc(F)cc(c23)N[C@@H]1c1ccc(F)cc1 + CC(C)NCC(C(=O)N1CCN(c2ncnc3c2C(C)CC3O)CC1)c1ccc(Cl)cc1: 64
Cn1ncnc1[C@H]1c2n[nH]c(=O)c3cc(F)cc(c23)N[C@@H]1c1ccc(F)cc1 + CCN1CCN(Cc2ccc(Nc3ncc(F)c(-c4cc(F)c5nc(C)n(C(C)C)c5c4)n3)nc2)CC1: 49.3
COc1c(OCCCN2CCOCC2)ccc2c3n(c(=NC(=O)c4cnc(N)nc4)nc12)CCN3 + CC(C)NCC(C(=O)N1CCN(c2ncnc3c2C(C)CC3O)CC1)c1ccc(Cl)cc1: 67.2

In: Find viability, T/C (327498-153-R-J2-PDC multicell spheroid viability) for the entry CC(C)n1nc(-c2ccc3oc(N)nc3c2)c2c(N)ncnc21 + CC(C)NCC(C(=O)N1CCN(c2ncnc3c2C(C)CC3O)CC1)c1ccc(Cl)cc1
Out: 44
